- test-name: Volume of distribution at steady state in Sprague-Dawley rat plasma at 1 mg/kg, iv administered as single dose by LC-MS/MS analysis
- Format: ADME, organism-based
- run-parameters: read-out: Vdss
reported-metric: Vd (L/kg)
Field format: number, assumed L/kg, no unit text.

For reference, reported Vd for "Cc1cc([C@@H]2CN(C(=O)c3ccc(F)c(Br)c3)CC(F)(F)C2)n2ncnc2n1" stands at 0.98

###

- test-name: AUC (0 to infinity) in Sprague-Dawley rat plasma at 1 mg/kg, iv administered as single dose by LC-MS/MS analysis
- Type: ADME, organism-based
- Design: dose 1 mg/kg, time infinity, route intravenous
reported-metric: AUC(0-inf)
Provide the measurement as a number trailed by its unit.

For reference, reported AUC(0-inf) for "Cc1cc([C@@H]2CN(C(=O)c3ccc(F)c(Br)c3)CC(F)(F)C2)n2ncnc2n1" stands at 0.508 µg·h/mL
